# Tested on: hepatitis B virus surface antigen (HBs)
# assay-details: Hepatitis-vaccine enhancing activity (adjuvant activity): anti-HBs IgG in mouse serum by ELISA
# Format: in vivo, female CDF1 mice
# condition-label: Experiment 1; 1 W after i.p. administration; 5000-fold dilution; compound in lipidmicrosphere + HBs
Can you tell me Anti-HBs IgG antibody level in serum (ELISA absorbance at 415 nm) for the items I'm about to list?
Answers are plain numbers, in O.D 415 nm.

Look over these answered cases.
CCCCCCCCCCCCCC(=O)O[C@H](CCCCCCCCCCC)CC(=O)S[C@@H]1O[C@H](CO)[C@@H](O)[C@H](O[C@H](C)C(=O)N[C@@H](C)C(=O)N[C@H](CCC(=O)OC)C(N)=O)[C@H]1NC(C)=O 0
CCCCCCCCCCCCCCC(CCCCCCCCCCCCCC)C(=O)S[C@@H]1O[C@H](CO)[C@@H](O)[C@H](O[C@H](C)C(=O)N[C@@H](C)C(=O)N[C@H](CCC(=O)OC)C(N)=O)[C@H]1NC(C)=O 0
CCCCCCCCCCCCCCC(CCCCCCCCCCCCCC)C(=O)O[C@H]1O[C@H](COC(=O)CCCCCCCCC)[C@@H](O)[C@H](O[C@H](C)C(=O)N[C@@H](C)C(=O)N[C@H](CCC(=O)OC)C(N)=O)[C@H]1NC(C)=O 0.001
CCCCCCCCCCCCCCCCCC(=O)OC[C@H]1O[C@@H](SC(=O)C[C@@H](CCCCCCCCCCC)OC(=O)CCCCCCCCCCCCC)[C@H](NC(C)=O)[C@@H](O[C@H](C)C(=O)N[C@@H](C)C(=O)N[C@H](CCC(=O)OC)C(N)=O)[C@@H]1O 0
CCCCCCCCCCCCCC(=O)O[C@H](CCCCCCCCCCC)CC(=O)S[C@@H]1O[C@H](COC(=O)CCCCCCCCC)[C@@H](O)[C@H](O[C@H](C)C(=O)N[C@@H](C)C(=O)N[C@H](CCC(=O)OC)C(N)=O)[C@H]1NC(C)=O 0

Hi! Can you tell me Anti-HBs IgG antibody level in serum (ELISA absorbance at 415 nm) for each of these molecules?
1. CCCCCCCCCCCCCCC(CCCCCCCCCCCCCC)C(=O)O[C@H]1O[C@H](CO)[C@@H](O)[C@H](O[C@H](C)C(=O)N[C@@H](C)C(=O)N[C@H](CCC(=O)OC)C(N)=O)[C@H]1NC(C)=O
2. CCCCCCCCCCCCCC(=O)O[C@H](CCCCCCCCCCC)CC(=O)O[C@H]1O[C@H](CO)[C@@H](O)[C@H](O[C@H](C)C(=O)N[C@@H](C)C(=O)N[C@H](CCC(=O)OC)C(N)=O)[C@H]1NC(C)=O

Response:
0.001
0

Provide reported Anti-HBs IgG antibody level in serum (ELISA absorbance at 415 nm) for each item, in the same order as listed.
1. CCCCCCCCCCCCCCCCCC(=O)OC[C@H]1O[C@H](OC(=O)C(CCCCCCCCCCCCCC)CCCCCCCCCCCCCC)[C@H](NC(C)=O)[C@@H](O[C@H](C)C(=O)N[C@@H](C)C(=O)N[C@H](CCC(=O)OC)C(N)=O)[C@@H]1O
2. CCCCCCCCCCCCCC(=O)O[C@H](CCCCCCCCCCC)CC(=O)O[C@H]1O[C@H](COC(=O)CCCCCCCCC)[C@@H](O)[C@H](O[C@H](C)C(=O)N[C@@H](C)C(=O)N[C@H](CCC(=O)OC)C(N)=O)[C@H]1NC(C)=O

Response:
1: 0; 2: 0.010
